- Test system: Phosphorylation of STAT6 in human A549 cells
- PROCEDURE_SUMMARY: Phosphorylated STAT6 (pSTAT6) flow cytometry assay in human A549 cells
- Assay type: cell-based
- CONDITION_LABEL: listed as I-394, read-out: STAT6 IL4 pSTAT6 assay in A549 cells: Average IC50
pIC50: −log10 of the molar value.

{"columns": ["MOLECULE", "pIC50"],
 "data": [
  ["CCC1CN(C)CC1c1cc(C2=CCCN(C(=O)CCn3ccnn3)C2)c(F)c2[nH]c(C(=O)N3CCN(c4ncc(F)cc4OC)CC3)cc12 (stereo not shown) [Example I-1209]", "< 4.00"]
]}

Where do these numbers come from? They come from patent US20250214977A1.
